Literature roundup of human IKK-β (Homo sapiens) data, read-out IC50.

Known results for compounds:
{"columns": ["COMPOUND", "IC50"],
 "data": [
  ["CCCN(CCC)C1CCCC(c2cc(-c3ccccc3O)nc(N)c2C#N)C1 (centres unmarked)", "< 500 nM"],
  ["NC(=O)Nc1sc(-c2ccc(/C=C/C[C@@H](N)C(=O)OC3CCCC3)cc2)cc1C(N)=O", "< 1000 nM"]
]}

Retrieve IC50 measured for `CCCCNCC(=O)Nc1cc(-c2cc(-c3ccccc3O)nc(N)c2C#N)ccc1OCC1CC1` and print it.
> 10000 nM

Using the record for `NC(=O)c1cnc(N)c2c1[nH]c1cc(C(F)(F)F)ccc12` , state its measured IC50.
≤ 100 nM

Return the recorded IC50 value; entry: `Cc1cnc(Nc2ccc(N3CCS(=O)(=O)CC3)cc2)nc1Nc1ccc2cn[nH]c2c1`
619 nM

Identify measured IC50 corresponding to CCCCCOc1cccc(O)c1-c1cc(C2CCCNC2)c(C#N)c(N)n1 (centres unmarked)
< 500 nM

Return reported IC50. Input compound: `NC(=O)Nc1sc(-c2ccc(CN[C@@H](C(=O)O)c3ccccc3)cc2)cc1C(N)=O`
< 1000 nM

Identify measured IC50 corresponding to N#Cc1c(C2CCCN(CCc3ccccc3)C2)cc(-c2ccccc2O)nc1N (centres unmarked)
500 to 2000 nM

----------
pIC50: −log10 of the molar value.
Target or system human IKK-β (Homo sapiens); metric pIC50; compiled from varied reports.

{"columns": ["COMPOUND", "pIC50"],
 "data": [
  ["N#Cc1c(C2CCNCC2)cc(-c2c(O)cccc2OCc2ccccc2)nc1N", "> 6.30"],
  ["CCCc1cc(N2CCC(NCC(O)COc3ccc(C#N)cc3)CC2)nc2sc(C(N)=O)c(N)c12 (centres unmarked)", "> 6.00"],
  ["CC(C)(C)c1ccc(COc2cccc(O)c2-c2cc(C3CCCNC3)c(C#N)c(N)n2)cc1 (centres unmarked)", "> 6.30"],
  ["CN1CCN(CC(=O)Nc2cccc(-c3cc(-c4ccccc4O)nc(N)c3C#N)c2)CC1", "5.70 to 6.30"],
  ["NC(=O)Nc1sc(-c2ccc(CCC[C@H](N)C(=O)O)cc2)cc1C(N)=O", "> 6.00"],
  ["NC(=O)Nc1sc(-c2ccc(C[C@H](N)C(=O)O)cc2)cc1C(N)=O", "> 6.00"]
]}

Provide pIC50 value for the following compound: `NC(=O)Nc1sc(-c2ccc(COCC[C@H](N)C(=O)O)cc2)cc1C(N)=O`
> 6.00

Give me measured pIC50, please, for this compound: N#Cc1c(C2CNc3ccccc3C2)cc(-c2ccccc2O)nc1N (centres unmarked)
< 5.00

----------
pIC50: −log10 of the molar value.
Here is a set of molecules with reported pIC50 for human IKK-β (Homo sapiens), compiled from the literature.

{"columns": ["MOLECULE", "TARGET_ENTITY", "pIC50"],
 "data": [
  ["NC(=O)c1cnc(N)c2c1sc1cc(/C=C/c3ccc(F)cc3)ccc12", "human IKK-β (Homo sapiens)", "≥ 6.30"],
  ["Cc1cccc(-c2cc(C3CCCNC3)c(C#N)c(N)n2)c1O (centres unmarked)", "human IKK-β (Homo sapiens)", "5.70 to 6.30"],
  ["CC(C)COC(=O)NCc1c(C2CCCNC2)cc(-c2c(O)cccc2OCC2CC2)nc1N (centres unmarked)", "human IKK-β (Homo sapiens)", "> 6.30"],
  ["NC(=O)C1Cc2c(C3CCCNC3)cc(-c3c(O)cccc3OCC3CC3)nc2NC1=O (centres unmarked)", "human IKK-β (Homo sapiens)", "> 6.30"],
  ["N#Cc1c(C2CCCNC2)cc(-c2c(O)cccc2OCc2ccc(C(F)(F)F)cc2)nc1N (centres unmarked)", "human IKK-β (Homo sapiens)", "> 6.30"]
]}

Give me measured pIC50, please, for this molecule: `CC(C)(C)C(=O)COc1cccc(O)c1-c1cc(C2CCNCC2)c(C#N)c(N)n1`
> 6.30

Please look at this molecule and report its pIC50: N#Cc1c(-c2ccc(N3CCC(NC(=O)C(F)(F)F)C3)c(NC(=O)CCN3CCCCC3)c2)cc(-c2ccccc2O)nc1N (centres unmarked)
> 6.30

Let me know recorded pIC50 for `C[C@H](N)c1cc(-c2ccccc2O)nc(N)c1C#N` , thanks.
> 6.30

Determine its reported pIC50: `Cc1cc(/C=C/CN[C@@H](CC(C)C)C(=O)OC2CCCC2)ccc1-c1cc(C(N)=O)c(NC(N)=O)s1`
< 5.30

Give the measured pIC50 for `N#Cc1c(-c2cccc(NC(=O)CNC3CCCC3)c2)cc(-c2ccccc2O)nc1N`
5.70 to 6.30

----------
// merged dataset of IC50 values, system = human IKK-β (Homo sapiens, UniProt O14920), multiple refs
Sequence (O14920 whole entry): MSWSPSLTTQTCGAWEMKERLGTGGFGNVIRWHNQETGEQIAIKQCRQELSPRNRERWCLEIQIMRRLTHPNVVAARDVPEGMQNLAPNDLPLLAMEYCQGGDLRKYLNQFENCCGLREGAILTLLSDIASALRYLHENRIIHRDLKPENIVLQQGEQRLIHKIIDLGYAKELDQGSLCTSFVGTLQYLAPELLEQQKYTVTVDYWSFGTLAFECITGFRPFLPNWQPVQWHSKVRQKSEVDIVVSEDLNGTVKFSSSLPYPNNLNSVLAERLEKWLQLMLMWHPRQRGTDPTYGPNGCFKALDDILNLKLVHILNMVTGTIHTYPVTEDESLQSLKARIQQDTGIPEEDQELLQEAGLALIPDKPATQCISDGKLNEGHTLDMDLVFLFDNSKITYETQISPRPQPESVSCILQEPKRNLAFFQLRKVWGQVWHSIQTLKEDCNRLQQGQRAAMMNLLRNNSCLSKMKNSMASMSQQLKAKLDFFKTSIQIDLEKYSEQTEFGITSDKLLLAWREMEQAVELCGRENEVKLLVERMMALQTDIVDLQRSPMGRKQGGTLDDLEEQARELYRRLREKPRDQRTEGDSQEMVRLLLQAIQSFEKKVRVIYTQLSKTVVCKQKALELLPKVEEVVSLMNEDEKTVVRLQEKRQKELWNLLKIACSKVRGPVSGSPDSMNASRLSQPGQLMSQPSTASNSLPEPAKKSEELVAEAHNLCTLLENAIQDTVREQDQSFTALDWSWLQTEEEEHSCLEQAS

{"columns": ["MOLECULE", "IC50"],
 "data": [
  ["CC(C)C[C@H](NC/C=C/c1ccc(-c2cc(C(N)=O)c(NC(N)=O)s2)cc1Cl)C(=O)OC1CCCC1", "1000 to 5000 nM"],
  ["NC(=O)c1sc2nc(N3CCC(N)CC3)cc(C(=O)Nc3cccnc3)c2c1N", "< 1000 nM"],
  ["CC(C)C[C@H](NCCCOc1ccc(-c2cc(C(N)=O)c(NC(N)=O)s2)c(Cl)c1)C(=O)O", "< 1000 nM"]
]}

Param request: IC50 | system human IKK-β (Homo sapiens, UniProt O14920) | item `N#Cc1c(-c2ccc(N)c(O)c2)cc(-c2ccccc2O)nc1N`
< 500 nM

# assay system human IKK-β (Homo sapiens, UniProt O14920): give IC50 of `N#Cc1c(-c2ccccc2C(=O)NCCN2CCCCC2)cc(-c2ccccc2O)nc1N`
< 500 nM

Enter IC50 (test system human IKK-β (Homo sapiens, UniProt O14920)) for N#Cc1c(-c2ccc(NC(=O)C(O)CCC(=O)O)cc2)cc(-c2ccccc2O)nc1N (stereo not shown)
< 500 nM

GET IC50 where system = human IKK-β (Homo sapiens, UniProt O14920) and item = `NC(=O)Nc1sc(-c2ccc(CN[C@H](C(=O)O)c3ccc4ccccc4c3)cc2)cc1C(N)=O`
< 1000 nM

----------
Dear all, I have gathered published IC50 values for UniProt O14920; the list follows.

{"columns": ["COMPOUND", "RESULT_VALUE"],
 "data": [
  ["CCCc1cc(N2CCC(NCC(=O)O)CC2)nc2sc(C(N)=O)c(N)c12", "< 1000 nM"]
]}

Give the measured IC50 for `N#Cc1c(-c2cccc(C(=O)O)c2)cc(-c2ccccc2O)nc1N`
2000 to 10000 nM

Recall and state the measured IC50 for `N#Cc1c([C@H](N)Cc2ccccc2)cc(-c2ccccc2O)nc1N` .
< 500 nM

Please list IC50 recorded for the compound `CC(C)C[C@H](NCc1ccc(-c2cc(C(N)=O)c(NC(N)=O)s2)cc1)C(=O)O`
< 1000 nM

Identify measured IC50 associated with `N#Cc1c(NCCN)cc(-c2c(O)cccc2OCC2CC2)nc1N`
< 500 nM

Provide one value: measured IC50 of `NC(=O)Nc1sc(-c2ccc(OCC[C@H](NC3CCCCC3)C(=O)O)cc2)cc1C(N)=O`
< 1000 nM

Specify measured IC50 for Nc1nc(-c2ccccc2O)cc2c1C(=O)N1CCCC2C1 (centres unmarked) .
500 to 2000 nM

// Input: `CC(C)C[C@H](NCCc1ccc(-c2cc(C(N)=O)c(NC(N)=O)s2)c(Cl)c1)C(=O)O` . Output its IC50 only.
< 1000 nM

Give recorded IC50. CC(C)(C)COC(=O)NCc1c(C2CCCNC2)cc(-c2c(O)cccc2OCC2CC2)nc1N (centres unmarked)
< 500 nM

Identify measured IC50 associated with `CC(C)C[C@H](N)C(=O)Nc1cc(-c2cc(-c3ccccc3O)nc(N)c2C#N)ccc1N1CCC[C@H]1CO`
500 to 2000 nM

Give recorded IC50. CCCc1cc(N2CCC(NCC(O)c3ccc(-c4ccccn4)cc3)CC2)nc2sc(C(N)=O)c(N)c12 (centres unmarked)
< 1000 nM

Supply recorded IC50 for CC(C)COC(=O)N1Cc2c(C3CCCNC3)cc(-c3c(O)cccc3OCC3CC3)nc2NC1=O (centres unmarked) here.
< 500 nM

Please report the measured IC50 for `N#Cc1c(-c2ccc(Cl)c(NC(=O)CCN)c2)cc(-c2ccccc2O)nc1N`
< 500 nM

----------
pIC50: −log10 of the molar value.
Consider the following pIC50 data for human IKK-β (Homo sapiens), collected from several reports.

Before answering, review these 5 worked examples.
{"columns": ["COMPOUND", "pIC50"],
 "data": [
  ["CCOc1cccc(O)c1-c1cc(C2CCCNC2)c(C#N)c(N)n1 (stereo not shown)", "> 6.30"],
  ["COC(=O)c1ccc(COc2cccc(O)c2-c2cc(C3CCCNC3)c(C#N)c(N)n2)cc1 (stereo not shown)", "> 6.30"],
  ["N#Cc1c([C@@H](N)Cc2ccccc2)cc(-c2ccccc2O)nc1N", "> 6.30"],
  ["CCCc1cc(N2CCC(NCCc3ccc(C(N)=O)cc3)CC2)nc2sc(C(N)=O)c(N)c12", "> 6.00"],
  ["COCCNCC(=O)Nc1cccc(-c2cc(-c3ccccc3O)nc(N)c2C#N)c1", "5.70 to 6.30"]
]}

Tell me pIC50 reported for `CC(C)(C)OC[C@H](NCc1cccc(-c2cc(C(N)=O)c(NC(N)=O)s2)c1)C(=O)O`
> 6.00

// Input: `NC(=O)Nc1sc(-c2ccc(CN[C@H](C(=O)OC3CCCC3)c3ccc4ccccc4c3)cc2)cc1C(N)=O` . Output its pIC50 only.
< 5.30

Give me measured pIC50, please, for this compound: N#Cc1c(C2CCCNC2)cc(-c2c(O)cccc2OCC2CC2)nc1N (stereo not shown)
> 6.30

Dear colleague, please send me the reported pIC50 for `NC(=O)Nc1sc(-c2ccc(OCC[C@H](N)C(=O)OC3CCCC3)cc2Cl)cc1C(N)=O` when you can.
> 6.00

// fetch pIC50 given entry `COCCNCC(=O)Nc1cc(-c2cc(-c3ccccc3O)nc(N)c2C#N)ccc1Cl`
> 6.30

Give the measured pIC50 for `NC(=O)c1sc2nc(N3CCC(N)CC3)cc(C(=O)Nc3ccccc3)c2c1N`
> 6.00

Using the record for COc1ccc(CN2CCCC(c3cc(-c4c(O)cccc4OCC4CC4)nc(N)c3C#N)C2)cc1 (stereo not shown) , state its measured pIC50.
5.00 to 5.70

Give the reported pIC50 for this compound. NC(=O)c1cc2c(C3CCCNC3)cc(-c3c(O)cccc3OCC3CC3)nc2[nH]c1=O (stereo not shown)
> 6.30

Return value of pIC50 for input `NC(=O)Nc1sc(-c2cccc(CN[C@H](C(=O)O)C3CCCCC3)c2)cc1C(N)=O` , no commentary.
> 6.00

Assign pIC50 to the following record: `NC(=O)Nc1cc(-c2ccc(C[C@H](N)C(=O)OC3CCCC3)cc2)sc1C(N)=O`
> 6.00

State its pIC50 for this compound: CC(C)CCCOc1cccc(O)c1-c1cc(C2CCCNC2)c(C#N)c(N)n1 (stereo not shown)
> 6.30

Give recorded pIC50. `CC(C)C[C@H](NC/C=C/c1ccc(-c2cc(C(N)=O)c(NC(N)=O)s2)cc1Cl)C(=O)O`
> 6.00

Complete the entry with pIC50 for `COc1cc(N2CCN(C)CC2)ccc1Nc1ncc(C)c(Nc2ccc3cn[nH]c3c2)n1`
< 6.00

Output measured pIC50 for this item: N#Cc1c(C2CCCNC2)cc(-c2c(O)cccc2OCc2cccc(C(F)(F)F)c2)nc1N (stereo not shown)
> 6.30

Identify the reported pIC50 for the following entry. `CC(C)C[C@H](NC/C=C/c1c(F)cc(-c2cc(C(N)=O)c(NC(N)=O)s2)cc1F)C(=O)O`
> 6.00

Fill in reported pIC50 for this entry: `CC(=O)Nc1ccc(-c2cc(-c3ccccc3O)nc(N)c2CO)cc1O`
> 6.30

Give the reported pIC50 for this compound. Oc1cccc(OCC2CC2)c1-c1cc(C2CCCNC2)c2c(n1)NCCC2 (stereo not shown)
> 6.30

For the compound `N#Cc1c(-c2cccc(N)c2)cc(-c2ncccc2O)nc1N` , report pIC50.
5.00 to 5.70

Please report pIC50 for the following compound: CCCc1cc(N2CCC(NCC(O)COc3cccc(OC)c3)CC2)nc2sc(C(N)=O)c(N)c12 (stereo not shown)
> 6.00

# return recorded pIC50 for entry `NC(=O)Nc1sc(-c2ccc(OCC[C@@H](N)C(=O)OC3CCCC3)cc2)cc1C(N)=O`
> 6.00
